Tested on: BCR/SYK and cytokine (IL2, IL4, IL6) JAK/STAT signaling
protocolDescription: Healthy whole blood ex vivo spiking experiments (summary)
Assay type: cell-based, human
statedConditions: Homo sapiens; healthy whole blood, ex vivo spiking; read-out: IC50's, BCR/SYK and cytokine (IL2, IL4, IL6) JAK/STAT signaling
measuredMetric: IC50

Entry CCS(=O)(=O)N1CCN(c2ccc(Nc3ncc(C(N)=O)c(NC4CC4)n3)cc2)CC1 [cerdulatinib] ; IC50 = 200 to 900 nM

====

protocolDescription: Phase 1 study: pharmacokinetics following oral dosing
Assay type: in vivo, human
statedConditions: 45 mg/day; Table 5, n=43; read-out: SS Cmax
measuredMetric: Cmax (nM)
Respond with the bare value in nM.

Entry CCS(=O)(=O)N1CCN(c2ccc(Nc3ncc(C(N)=O)c(NC4CC4)n3)cc2)CC1 ; Cmax = 1690

====

System: LY7
protocolDescription: DLBCL cell line viability, CellTiter Glo
Format: cell-based
statedConditions: read-out: IC50 of Kinase Inhibitor in CellTiter Glo Assay
measuredMetric: IC50 (µM)
Respond with the bare value in µM.

Here CC(C)(C)c1nc2c3cc[nH]c(=O)c3c3cc(F)ccc3c2[nH]1 was tested on LY7, and its IC50 came to 34

====

Tested on: PKC
protocolDescription: Healthy normal human whole blood assay: T-cell, PMA stimulation, pERK Y204 readout
Assay type: cell-based
pIC50: −log10 of the molar value.
measuredMetric: pIC50

Entry CCS(=O)(=O)N1CCN(c2ccc(Nc3ncc(C(N)=O)c(NC4CC4)n3)cc2)CC1 [cerdulatinib] ; pIC50 = < 5.40

====

systemTested: TYK2 (Homo sapiens, UniProt P29597)
Sequence (P29597 whole entry): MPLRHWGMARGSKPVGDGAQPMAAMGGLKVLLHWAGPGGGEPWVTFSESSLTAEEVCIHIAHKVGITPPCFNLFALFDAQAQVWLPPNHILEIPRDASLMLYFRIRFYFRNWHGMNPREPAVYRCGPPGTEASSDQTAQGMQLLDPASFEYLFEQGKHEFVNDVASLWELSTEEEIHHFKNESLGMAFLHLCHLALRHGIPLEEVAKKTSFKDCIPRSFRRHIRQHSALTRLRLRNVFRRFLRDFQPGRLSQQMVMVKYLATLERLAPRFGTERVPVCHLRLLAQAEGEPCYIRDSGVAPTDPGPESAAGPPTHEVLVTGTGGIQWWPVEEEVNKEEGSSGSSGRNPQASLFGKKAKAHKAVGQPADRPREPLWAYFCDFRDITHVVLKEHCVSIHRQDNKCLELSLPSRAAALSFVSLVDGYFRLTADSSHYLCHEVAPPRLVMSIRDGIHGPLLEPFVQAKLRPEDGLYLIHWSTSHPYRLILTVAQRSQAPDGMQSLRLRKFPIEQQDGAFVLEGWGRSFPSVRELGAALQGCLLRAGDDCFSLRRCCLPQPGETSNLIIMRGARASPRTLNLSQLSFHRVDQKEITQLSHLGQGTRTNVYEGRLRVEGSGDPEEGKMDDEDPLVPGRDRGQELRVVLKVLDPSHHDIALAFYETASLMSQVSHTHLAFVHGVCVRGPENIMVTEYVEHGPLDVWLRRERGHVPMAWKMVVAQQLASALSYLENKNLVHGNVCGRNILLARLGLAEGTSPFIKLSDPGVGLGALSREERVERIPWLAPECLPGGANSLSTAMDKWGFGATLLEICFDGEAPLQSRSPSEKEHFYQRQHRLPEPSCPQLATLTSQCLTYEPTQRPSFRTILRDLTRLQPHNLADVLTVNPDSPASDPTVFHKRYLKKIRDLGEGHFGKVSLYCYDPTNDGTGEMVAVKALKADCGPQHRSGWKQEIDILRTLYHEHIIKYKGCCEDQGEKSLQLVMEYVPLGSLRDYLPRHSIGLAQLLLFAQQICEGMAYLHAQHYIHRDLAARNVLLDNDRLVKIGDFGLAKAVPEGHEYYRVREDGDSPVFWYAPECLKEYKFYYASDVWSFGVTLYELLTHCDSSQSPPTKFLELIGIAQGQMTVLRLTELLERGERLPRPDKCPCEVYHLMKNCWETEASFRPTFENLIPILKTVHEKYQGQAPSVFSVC
measuredMetric: pIC50
Lab note: report pIC50 as minus log10 of the concentration in molar units, number only.

Entry CCS(=O)(=O)N1CCN(c2ccc(Nc3ncc(C(N)=O)c(NC4CC4)n3)cc2)CC1 [cerdulatinib] ; pIC50 = 9.30

====

systemTested: RSK2 (Homo sapiens, UniProt P51812)
Sequence (P51812 whole entry): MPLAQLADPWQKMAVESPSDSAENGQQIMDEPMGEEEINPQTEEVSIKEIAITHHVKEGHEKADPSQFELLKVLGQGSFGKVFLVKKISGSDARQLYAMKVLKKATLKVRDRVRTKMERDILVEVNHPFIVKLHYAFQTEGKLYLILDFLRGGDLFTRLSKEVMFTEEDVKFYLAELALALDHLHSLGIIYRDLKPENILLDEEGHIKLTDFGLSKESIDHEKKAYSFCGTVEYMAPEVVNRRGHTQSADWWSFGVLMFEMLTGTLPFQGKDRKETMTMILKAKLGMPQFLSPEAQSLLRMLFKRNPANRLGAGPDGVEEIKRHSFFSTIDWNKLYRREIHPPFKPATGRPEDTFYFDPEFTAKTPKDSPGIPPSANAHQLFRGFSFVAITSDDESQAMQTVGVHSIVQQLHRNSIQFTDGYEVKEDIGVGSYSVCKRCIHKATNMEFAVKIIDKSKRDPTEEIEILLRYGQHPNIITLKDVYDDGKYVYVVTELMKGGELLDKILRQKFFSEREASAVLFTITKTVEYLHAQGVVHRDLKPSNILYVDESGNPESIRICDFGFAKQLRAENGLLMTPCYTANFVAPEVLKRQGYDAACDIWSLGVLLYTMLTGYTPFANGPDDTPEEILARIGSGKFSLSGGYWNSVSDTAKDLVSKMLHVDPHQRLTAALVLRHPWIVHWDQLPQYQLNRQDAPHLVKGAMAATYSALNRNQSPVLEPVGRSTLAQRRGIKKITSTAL
measuredMetric: IC50

Here CCS(=O)(=O)N1CCN(c2ccc(Nc3ncc(C(N)=O)c(NC4CC4)n3)cc2)CC1 was tested on RSK2 (Homo sapiens, UniProt P51812), and its IC50 came to 20 nM

====

systemTested: UniProt O14757
Sequence (O14757 whole entry): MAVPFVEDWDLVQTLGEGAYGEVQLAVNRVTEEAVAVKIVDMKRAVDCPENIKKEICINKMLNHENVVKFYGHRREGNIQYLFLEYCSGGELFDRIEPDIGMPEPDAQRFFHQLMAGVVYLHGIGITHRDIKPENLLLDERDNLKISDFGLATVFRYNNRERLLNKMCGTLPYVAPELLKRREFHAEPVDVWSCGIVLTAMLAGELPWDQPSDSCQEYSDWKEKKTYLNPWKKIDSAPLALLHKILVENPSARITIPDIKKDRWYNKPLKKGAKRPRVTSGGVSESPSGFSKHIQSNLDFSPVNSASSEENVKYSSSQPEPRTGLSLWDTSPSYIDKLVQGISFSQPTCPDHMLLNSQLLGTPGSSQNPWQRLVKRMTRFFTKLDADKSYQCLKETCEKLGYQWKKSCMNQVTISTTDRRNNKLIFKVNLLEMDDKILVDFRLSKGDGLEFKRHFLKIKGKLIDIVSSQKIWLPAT
measuredMetric: IC50 (nM)
Respond with the bare value in nM.

Here CCS(=O)(=O)N1CCN(c2ccc(Nc3ncc(C(N)=O)c(NC4CC4)n3)cc2)CC1 was tested on UniProt O14757, and its IC50 came to 42

====

protocolDescription: Phase 1 study: pharmacokinetics following oral dosing
Assay type: in vivo, human
statedConditions: human, plasma, oral; 40 mg QD; read-out: steady-state concentrations Cmin to Cmax
measuredMetric: Cmax

Entry CCS(=O)(=O)N1CCN(c2ccc(Nc3ncc(C(N)=O)c(NC4CC4)n3)cc2)CC1 ; Cmax = 1000 to 2000 nM

====

systemTested: UniProtKB Q7KZI7
Sequence (Q7KZI7 1-725 isoform Q7KZI7-4): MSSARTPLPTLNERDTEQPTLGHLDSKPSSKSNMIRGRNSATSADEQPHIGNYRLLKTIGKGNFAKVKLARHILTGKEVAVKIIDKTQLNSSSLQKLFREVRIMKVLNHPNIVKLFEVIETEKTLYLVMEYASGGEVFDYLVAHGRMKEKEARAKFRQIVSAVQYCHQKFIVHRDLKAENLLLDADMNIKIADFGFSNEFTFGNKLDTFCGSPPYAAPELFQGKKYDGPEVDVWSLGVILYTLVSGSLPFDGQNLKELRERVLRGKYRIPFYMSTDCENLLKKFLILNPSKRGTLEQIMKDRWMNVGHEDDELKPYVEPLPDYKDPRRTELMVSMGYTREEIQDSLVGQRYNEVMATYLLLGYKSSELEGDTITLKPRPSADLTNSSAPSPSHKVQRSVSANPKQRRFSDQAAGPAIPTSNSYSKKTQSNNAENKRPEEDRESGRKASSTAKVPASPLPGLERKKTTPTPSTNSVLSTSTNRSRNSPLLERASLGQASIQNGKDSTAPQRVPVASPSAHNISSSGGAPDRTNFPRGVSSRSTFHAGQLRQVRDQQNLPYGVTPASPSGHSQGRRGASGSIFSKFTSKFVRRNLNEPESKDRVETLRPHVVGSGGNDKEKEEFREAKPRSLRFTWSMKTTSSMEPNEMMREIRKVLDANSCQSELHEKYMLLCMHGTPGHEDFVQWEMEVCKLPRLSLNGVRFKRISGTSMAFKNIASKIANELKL
measuredMetric: pIC50
Lab note: report pIC50 as minus log10 of the concentration in molar units, number only.

Here CCS(=O)(=O)N1CCN(c2ccc(Nc3ncc(C(N)=O)c(NC4CC4)n3)cc2)CC1 was tested on UniProtKB Q7KZI7, and its pIC50 came to 7.89
